# system_under_test: BTK (Homo sapiens (Human), UniProt Q06187)
# Sequence (Q06187 whole entry): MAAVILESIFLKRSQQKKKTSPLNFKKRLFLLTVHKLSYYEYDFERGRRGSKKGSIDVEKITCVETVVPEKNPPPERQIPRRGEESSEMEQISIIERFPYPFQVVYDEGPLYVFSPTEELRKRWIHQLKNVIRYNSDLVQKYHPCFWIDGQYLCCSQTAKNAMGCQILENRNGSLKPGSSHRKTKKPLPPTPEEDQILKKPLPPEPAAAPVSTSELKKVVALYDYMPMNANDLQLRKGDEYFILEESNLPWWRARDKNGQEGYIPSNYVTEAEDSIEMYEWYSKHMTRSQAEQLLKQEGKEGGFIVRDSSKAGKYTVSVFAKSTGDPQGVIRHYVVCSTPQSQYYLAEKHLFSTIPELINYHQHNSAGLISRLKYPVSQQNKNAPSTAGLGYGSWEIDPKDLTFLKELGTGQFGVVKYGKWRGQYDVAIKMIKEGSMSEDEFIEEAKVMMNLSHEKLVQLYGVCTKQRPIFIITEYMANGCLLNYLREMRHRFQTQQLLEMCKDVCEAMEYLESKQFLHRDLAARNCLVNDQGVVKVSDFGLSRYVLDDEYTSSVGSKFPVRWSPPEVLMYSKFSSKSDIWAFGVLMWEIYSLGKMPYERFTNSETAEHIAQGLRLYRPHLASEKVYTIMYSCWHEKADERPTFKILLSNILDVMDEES
# experiment: In vitro BTK kinase assay: BTK-POLYGAT-LS ASSAY
Measured IC50 accompanies every entry in the list below.

molecule	IC50
Nc1ncnc(N2CCC[C@@H](N3CC[C@@H](Nc4cc(Cl)cc(Cl)c4)C3=O)C2)c1Cl	0.1 to 0.999 µM
Cc1cc(NC(=O)Nc2cccc(C3CCCN(c4ncnc5[nH]ccc45)C3)c2)no1 (centres unmarked)	1 to 10 µM
CN(C)[C@H]1CCN(c2ccccc2NC(=O)Nc2cccc(C3CCCN(c4ncnc5[nH]ccc45)C3)c2)C1 (some centres unmarked)	1 to 10 µM
Nc1ncnc(N2CC[C@H](O)[C@@H](N3CCCC(Nc4cc(Cl)cc(Cl)c4)C3=O)C2)c1F (some centres unmarked)	0.1 to 0.999 µM
O=C(Nc1ccsc1)Nc1cccc(C2CCCN(c3ncnc4[nH]ccc34)C2)c1 (centres unmarked)	1 to 10 µM
Cc1ccnc(Cl)c1NC(=O)Nc1cccc(C2CCCN(c3ncnc4[nH]ccc34)C2)c1 (centres unmarked)	1 to 10 µM
O=C(Nc1ccccc1)Nc1nc(C2CCCN(c3ncnc4[nH]ccc34)C2)cs1 (centres unmarked)	1 to 10 µM
O=C(Nc1cccc(C2CCCN(c3ncnc4[nH]ccc34)C2)c1)N1CCCCC1 (centres unmarked)	1 to 10 µM

* * *

# system_under_test: BTK (Homo sapiens (Human))
# experiment: In vitro BTK kinase assay: BTK-POLYGAT-LS ASSAY
# experimental_conditions: read-out: IC50 (10 uM ATP); 10 uM ATP; in vitro Btk kinase assay, Example 41
pIC50: −log10 of the molar value.
Measured pIC50 accompanies every entry in the list below.
reported_endpoint: pIC50

compound	result_value
C[C@H](NC(=O)Nc1cccc(C2CCCN(c3ncnc4[nH]ccc34)C2)c1)C1CCCCC1 (some centres unmarked)	< 5.00
Nc1ncnc(N2C[C@@H](F)C[C@@H](N3CCCC(Nc4cc(Cl)cc(Cl)c4)C3=O)C2)c1F (some centres unmarked)	> 7.00
Nc1ncnc(N2CC[C@H](C(F)(F)F)[C@@H](N3CCCC(Nc4cc(Cl)cc(Cl)c4)C3=O)C2)c1F (some centres unmarked)	> 7.00
Nc1ncnc(N2CC[C@H](O)[C@@H](N3CCC[C@@H](Nc4cc(Cl)cc(Cl)c4)C3=O)C2)c1F	> 7.00
O=c1nc(Nc2cccc(C3CCCN(c4ncnc5[nH]ccc45)C3)c2)[nH]c2ccccc12 (centres unmarked)	< 5.00
O=C(NCC1CCCCN1)Nc1cccc(C2CCCN(c3ncnc4[nH]ccc34)C2)c1 (centres unmarked)	< 5.00
O=C(Nc1cccc(C2CCCN(c3ncnc4[nH]ccc34)C2)c1)c1ccc[nH]1 (centres unmarked)	< 5.00
O=S(=O)(Nc1cccc(C2CCCN(c3ncnc4[nH]ccc34)C2)c1)c1ccccc1 (centres unmarked)	< 5.00

* * *

# system_under_test: BTK (Homo sapiens (Human), UniProt Q06187)
# experiment: In vitro BTK kinase assay: BTK-POLYGAT-LS ASSAY
# experimental_conditions: read-out: IC50 (10 uM ATP); 10 uM ATP; in vitro Btk kinase assay, Example 41
reported_endpoint: IC50

compound	reported_endpoint	result_value
Nc1ncnc(N2CCC(C(F)(F)F)C(N3CC=CC[C@@H](Nc4cc(F)cc(Cl)c4)C3=O)C2)c1F (some centres unmarked)	IC50	< 0.1 µM
O=C(Nc1cccc(C2CCCN(c3ncnc4[nH]ccc34)C2)c1)Nc1ccccc1N1C[C@H](O)[C@@H](O)C1 (some centres unmarked)	IC50	< 0.1 µM
CCOC(=O)/C=C/c1c(N)ncnc1N1CCCC(c2cccc(NC(=O)Nc3ccccc3)c2)C1 (centres unmarked)	IC50	> 10 µM
CNc1cc(N2CCCC(c3cccc(NC(=O)Nc4ccccc4)c3)C2)ncn1 (centres unmarked)	IC50	> 10 µM
CC(=O)N1CCC(CNC(=O)Nc2cccc(C3CCCN(c4ncnc5[nH]ccc45)C3)c2)CC1 (centres unmarked)	IC50	> 10 µM
O=C1[C@H](Nc2cc(Cl)cc(Cl)c2)CCN1[C@H]1CN(c2ncnc3[nH]ccc23)CC[C@@H]1C(F)(F)F	IC50	< 0.1 µM
N[C@H](C(=O)Nc1cccc(C2CCCN(c3ncnc4[nH]ccc34)C2)c1)c1ccccc1 (some centres unmarked)	IC50	> 10 µM
Nc1ncnc(N2CCC[C@@H](N3CCCC(NCc4ccccc4)C3=O)C2)c1F (some centres unmarked)	IC50	> 10 µM
